Would you mind telling me the reported binding signal (nm) of each entry?
# MEASUREMENT_TARGET: T1, human galectin-10-His (recombinant human galectin-10 with TEV-cleavable N-terminal His-tag) (human)
# T1 construct: SEC-MALLS: dimer in solution; also called Gal10-His; humanGal10-His
# T1 chain: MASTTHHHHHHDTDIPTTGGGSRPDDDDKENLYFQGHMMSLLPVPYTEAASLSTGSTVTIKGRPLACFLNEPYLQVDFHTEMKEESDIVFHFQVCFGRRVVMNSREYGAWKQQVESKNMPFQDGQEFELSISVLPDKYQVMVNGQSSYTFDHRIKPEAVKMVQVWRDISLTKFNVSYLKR
# METHOD_SUMMARY: BLI tandem on galectin-10-His; competitor: saturating 1D11 mIgG1 (10 ug/mL)
Answer format: numeric, nm implied, no suffix.

What value of binding signal (nm) has been recorded for this entry: 4E08 mouse IgG1 (antibody, V domains shown, VH on mouse IgG1 heavy chain constant domains (CH1-CH2-CH3), VL on mouse lambda light chain constant domain; also called 4E8; 4E08 mIgG1) VH: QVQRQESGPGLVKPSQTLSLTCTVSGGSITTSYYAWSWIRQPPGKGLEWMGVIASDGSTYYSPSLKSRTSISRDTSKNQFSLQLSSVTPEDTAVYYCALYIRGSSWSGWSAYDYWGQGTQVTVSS VL: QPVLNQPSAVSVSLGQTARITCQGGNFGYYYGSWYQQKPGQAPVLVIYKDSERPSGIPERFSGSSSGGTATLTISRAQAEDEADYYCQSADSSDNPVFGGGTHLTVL 0.03

What value of binding signal (nm) has been recorded for this entry: 6A08 mouse IgG1 (antibody, V domains shown, also called 6A08 mIgG1) VH: QVQLVESGGGLVQPGGSLRLSCAASGFTFSSYAMSWVRQAPGKGPEWVSAINRGGGSTYYADSVKGRFTISRDNAKNTLYLQMNSLKPEDAAVYYCATPGDRLWYYRYDYWGQGAQVTVSS VL: QTVVTQEPSLSVSPGGTVTLTCGLSSGSVTSSNYPGWYQQTPGQAPRLLIYNTNSRYSGVPNRFSGSISGNKAALIISGAQPEDEADYHCALNRVRGTYRVFGGGTHLTVL 0.05
